# STUDY TARGET: Estrogen-related receptor gamma (Homo sapiens) (UniProt P62508)
# Sequence (P62508 whole entry, looked up): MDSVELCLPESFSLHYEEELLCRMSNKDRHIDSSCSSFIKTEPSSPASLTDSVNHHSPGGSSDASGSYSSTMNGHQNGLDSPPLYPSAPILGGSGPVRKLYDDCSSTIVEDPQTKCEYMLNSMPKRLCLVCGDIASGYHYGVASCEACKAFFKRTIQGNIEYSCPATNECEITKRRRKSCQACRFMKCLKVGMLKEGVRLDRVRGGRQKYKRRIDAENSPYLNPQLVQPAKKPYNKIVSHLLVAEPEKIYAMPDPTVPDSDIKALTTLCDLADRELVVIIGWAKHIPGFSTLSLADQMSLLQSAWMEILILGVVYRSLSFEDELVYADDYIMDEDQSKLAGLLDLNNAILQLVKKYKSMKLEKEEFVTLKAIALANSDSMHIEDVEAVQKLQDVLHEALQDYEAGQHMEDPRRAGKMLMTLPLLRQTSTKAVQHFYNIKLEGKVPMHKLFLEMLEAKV
# ASSAY: ATG_ERRg_TRANS: Attagene TRANS-FACTORIAL HepG2 Assay for human Estrogen-Related Receptor gamma (ERRg) (AID 2282977);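 note: hits increase reporter signal over DMSO so potencies reflect activators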
# ASSAY CONDITIONS: HepG2 Attagene TRANS reporter, ERRg transactivation
Results filed as inconclusive are left out. Calls of active or inactive are those of the source. Rule for the calls: active = hit-call score of the fitted dose curve at least 0.9, where 1 is the maximum; inconclusive = response in the unintended direction; inactive = score below 0.9.
Pick one: true = active, false = inactive

These recorded examples may help you get a feel for the data.
• CCCSP(=S)(OCC)Oc1ccc(SC)cc1 (stereo unspecified) = false
• CCC(C)(C#N)N=NC(C)(C#N)CC (stereo unspecified) = false
• [Cl][Sn]([c]1ccccc1)([c]1ccccc1)[c]1ccccc1 = false
• C[CH2][Hg][S]c1ccccc1C(=O)O = false
• C=CCOC(F)(C(F)(F)F)C(F)(F)F = false
• COc1ccccc1N = false
• O=c1nc(O)n(Cl)c(=O)n1Cl = false
• O=C(CBr)c1ccc(O)cc1 = false
• N#Cc1ccc(Cl)cc1 = false
• C=C(C)C(=O)OCC(CC)CCCC (stereo unspecified) = false

Dear all, I need the recorded test outcome for `CCCCCCCCCCBr` , thank you.
false

Same read-out for `C=CC(=O)OCC(COC(=O)C=C)(COC(=O)C=C)COC(=O)C=C` ?
true

Same read-out for CCOC(=O)C(SP(=S)(OC)OC)c1ccccc1 (stereo unspecified) ?
false

Same read-out for `O=C(O)COc1ccc(Cl)cc1` ?
false

Same read-out for `O=c1[nH]c2ccccc2n1C1CCN(CCCC(c2ccc(F)cc2)c2ccc(F)cc2)CC1` ?
false

Same read-out for `ClCc1ccccc1Cl` ?
false

Same read-out for `CCCCN(CCCC)C(=S)S` ?
false

Same read-out for `CCCCOP(=O)(CCCC)OCCCC` ?
false
